- TEST TARGET: T1, recombinant human ADAMTS5 (R&D Systems cat #2198-AD) (human, UniProt Q9UNA0 262-622, limits assumed)
- T1 sequence: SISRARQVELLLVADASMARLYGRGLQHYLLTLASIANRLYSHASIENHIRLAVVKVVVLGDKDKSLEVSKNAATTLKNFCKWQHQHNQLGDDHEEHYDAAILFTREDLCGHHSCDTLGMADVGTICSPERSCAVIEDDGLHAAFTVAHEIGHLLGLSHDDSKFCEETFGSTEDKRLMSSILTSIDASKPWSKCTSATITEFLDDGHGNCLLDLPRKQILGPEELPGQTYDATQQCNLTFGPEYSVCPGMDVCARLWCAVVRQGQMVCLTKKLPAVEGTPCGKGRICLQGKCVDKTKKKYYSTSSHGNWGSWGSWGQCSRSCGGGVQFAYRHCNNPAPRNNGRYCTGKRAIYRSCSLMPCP
- TEST METHOD NOTES: cell-based or functional assay
READOUT TYPE: Human AlphaLISA IC50 (nM)
Field format: number, assumed nM, no unit text.

{"BINDER": "Nanobody 3B02 (VHH, tagged as tested (anti-Flag detection, IMAC); also called 03B02; 3B2) VHH: EVQLVESGGGFVQAGGSLRLSCVASRRTISSGTMGWFRQAPGKEREFVAAIRWSSGMPYYLDSVMDRFTISRDNAKNTVSLQMNSLQPEDTAVYYCAADRSAFRDPSFDVNYEYWGRGTLVTVSS", "ASSAY RESULT": 0.3}

Query: # query: Human AlphaLISA IC50 of entry Nanobody 9A05 (VHH) VHH: EVQLVESGGGFVQAGGSLRLSCAASRRTISSGTMGWFRQAPGKEREFVAAIRWSSGITFYPDSVEGRFTISGDNAKNTVSLQMNSLKPEDTAVYYCAADRSALRDPSFEVNYEYWGRGTLVTVSS
Response: 0.32
